These measurements were taken from the MegaScale stability set (Tsuboyama et al. 2023).

B1: EHEE_rd2_0601 (parent)
chain: TYTYKLTDEEASRRAEDEWRNRGYDVRVRNNNGTWEVEVR

variants of: B1; assay: folding stability dG (cDNA display proteolysis); higher = more stable; conditions: PBS, room temperature
Use 4 kJ/mol as the dividing line for folding stability dG, with the line itself on the rule met side and lower values as rule not met.

Is folding stability dG at least 4 kJ/mol? Consider TYTYKLTDENASRRAEDEWRNRGYDVRVRNNNGTWEVEVR [E10N]
rule met

In plain terms: is recorded folding stability dG at least 4 kJ/mol for TYTYKLTDEEASDRAEDEWRNRGYDVRVRNNNGTWEVEVR [R13D] ?
rule not met

Entry TYTYKLTDEEASRRAEMEWRNRGYDVRVRNNNGTWEVEVR [D17M] : is its folding stability dG no less than 4 kJ/mol?
rule met

Test whether the variant TYTYKLTDEEASRRAEDEIRNRGYDVRVRNNNGTWEVEVR [W19I] records folding stability dG of 4 kJ/mol or higher.
rule not met

Please check the record TYTYKLTDEEASRRAEDEERNRGYDVRVRNNNGTWEVEVR [W19E] and state if its folding stability dG is at or above 4 kJ/mol.
rule not met

Hi, just wondering whether TYTYKLTDEEASRRAEDEWRNRGYDVRVRNNNTTWEVEVR [G33T] shows folding stability dG of 4 kJ/mol or higher.
rule not met

Would you say TYTYKLTDEMASRRAEDEWRNRGYDVRVRNNNGTWEVEVR [E10M] shows folding stability dG at minimum 4 kJ/mol?
rule met

Dear colleague, could you confirm whether TYTYKLTDEEASRRAEDEWRNRNYDVRVRNNNGTWEVEVR [G23N] has folding stability dG at or above 4 kJ/mol?
rule not met

Test whether the variant TYPYKLTDEEASRRAEDEWRNRGYDVRVRNNNGTWEVEVR [T3P] records folding stability dG of 4 kJ/mol or higher.
rule not met

Does the variant TYTYKLTDEEASYRAEDEWRNRGYDVRVRNNNGTWEVEVR [R13Y] have recorded folding stability dG that is 4 kJ/mol or more?
rule not met

Check if folding stability dG >= 4 kJ/mol (inclusive). Item: TYTYKLTDEEASRRAEDEWRNRGYDVRVRNNNGTWEVVVR [E38V]
rule met

Is folding stability dG for TYTYKLTDEEASRRAEDEWRNRGYDVRVRHNNGTWEVEVR [N30H] at or above 4 kJ/mol?
rule met

Hi team, for AYTYKLTDEEASRRAEDEWRNRGYDVRVRNNNGTWEVEVR [T1A] , is the recorded folding stability dG at or above 4 kJ/mol?
rule met

Say whether TYTYKLTDEWASRRAEDEWRNRGYDVRVRNNNGTWEVEVR [E10W] shows folding stability dG of 4 kJ/mol or more.
rule met

Form field: folding stability dG at least 4 kJ/mol? Entry: TYTYKLTDEEASRRAHDEWRNRGYDVRVRNNNGTWEVEVR [E16H]
rule met

Is folding stability dG for TYTYKLTDEEACRRAEDEWRNRGYDVRVRNNNGTWEVEVR [S12C] at or above 4 kJ/mol?
rule met

Quick check: does TYTYKLTDEEASRRAEDEWRNRGYDVRVRNNNGTWEVTVR [E38T] have folding stability dG greater than or equal to 4 kJ/mol?
rule met

Quick check, folding stability dG >= 4 kJ/mol? TYTYKLTDEEASRRAEDEWRNRGYDVRVRFNNGTWEVEVR [N30F]
rule met

# check: folding stability dG of TYTYKLTDEEASRRAEDEWRNRGYDVRVRNNNGTWEVQVR [E38Q] is greater than or equal to 4 kJ/mol
rule met

Tell me whether folding stability dG is at least 4 kJ/mol here: TYTYKLTDEEESRRAEDEWRNRGYDVRVRNNNGTWEVEVR [A11E]
rule met

Can TYTYKLTDEEASRRAADEWRNRGYDVRVRNNNGTWEVEVR [E16A] be said to have folding stability dG at or above 4 kJ/mol?
rule met

Kindly determine if folding stability dG recorded for TYTYFLTDEEASRRAEDEWRNRGYDVRVRNNNGTWEVEVR [K5F] is above or exactly 4 kJ/mol.
rule met
